biological target: Sphingosine 1-phosphate receptor 2 (Homo sapiens); assay: human S1P2 receptor antagonists, primary screen, cell-based (AID 736); settings: cell-based S1P2 antagonist assay, at 5 µM, active compounds read high;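 further: CRE beta-lactamase reporter cells expressing human S1P2 stimulated with S1P; 0% = agonist at EC80 alone and 100% = agonist plus reference antagonist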
Among all 97,000 compounds or so, about 210 (0.22%) were called active. The sample holds actives, similar compounds and a random draw of the others, so the mix is not that of the screen.
Reported Endpoint: inhibition (%)
Value expressed in %; do not type the unit.

Cc1ccc(O/C=C2\OC(=O)c3ccccc32)cc1 | -18.2
Cc1ccc(-c2cc(C(=O)NCC3CCCO3)c3ccccc3n2)o1 (stereo not drawn) | 6.28
Cc1nn(-c2ccccc2)c(Cl)c1C(=O)Nc1ccccc1 | -0.13
CCOc1cccc(C(=O)Nc2nnc(-c3cccs3)s2)c1 | -13.1
COc1ccc(C2C(C(C)=O)=C(O)C(=O)N2Cc2cccnc2)cc1 (stereo not drawn) | 5.26
CCN(CC)C(=O)CSc1nc2ccccc2o1 | 3.55
Fc1ccc(-n2c(Cc3ccccc3)nnc2SCc2nc(-c3ccc(Cl)cc3)no2)cc1 | -18.9

Could you now consider this next molecule?
Request: I'm curious: which inhibition was measured for `Cc1ccccc1-n1nc(C)c2cc(C(=O)NC3CC3)sc21` tested on Sphingosine 1-phosphate receptor 2 (Homo sapiens)?
Response: 2.59

---

target: Sphingosine 1-phosphate receptor 2 (Homo sapiens) (UniProt O95136); assay: human S1P2 receptor antagonists, primary screen, cell-based (AID 736); details: cell-based S1P2 antagonist assay, at 5 µM, active compounds read high;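 further: CRE beta-lactamase reporter cells expressing human S1P2 stimulated with S1P; 0% = agonist at EC80 alone and 100% = agonist plus reference antagonist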
Sequence (O95136 whole entry, looked up): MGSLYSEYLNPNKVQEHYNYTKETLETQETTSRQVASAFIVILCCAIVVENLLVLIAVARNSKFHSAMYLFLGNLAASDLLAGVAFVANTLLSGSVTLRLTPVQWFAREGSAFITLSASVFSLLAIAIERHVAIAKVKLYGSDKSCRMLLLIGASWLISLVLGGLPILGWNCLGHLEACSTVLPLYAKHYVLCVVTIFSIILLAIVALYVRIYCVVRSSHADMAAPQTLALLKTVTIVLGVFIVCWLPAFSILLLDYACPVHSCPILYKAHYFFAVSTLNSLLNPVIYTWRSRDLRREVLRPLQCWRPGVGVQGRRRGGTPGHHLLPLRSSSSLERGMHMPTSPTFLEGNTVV
About 210 (0.22%) of roughly 97,000 compounds were called active. Only a selection was taken, and actives are over-represented in it overall.
Reported Endpoint: inhibition (%)
Value expressed in %; do not type the unit.

Please review the entries below; each comes with its answer.
CCOC(=O)c1sc(NC(=O)CSc2nc(C)cc(C(F)(F)F)n2)c(C#N)c1C | -9.87
CC(N)C12CC3CC(CC(O)(C3)C1)C2 (stereo not given) | -17.7

Request: I'm curious: which inhibition was measured for `O=C(Nc1cccc2ccccc12)c1onc2c1CCCC2` tested on Sphingosine 1-phosphate receptor 2 (Homo sapiens) (UniProt O95136)?
Response: -13

Request: Now the compound `CC(=O)NS(=O)(=O)c1ccc(NC(=S)NC(=O)C(C)(C)C)cc1`
Response: 1.69

Request: Now the compound `COc1ccc(C(=O)Nc2nc(-c3ccc(S(=O)(=O)N4CCOCC4)cc3)cs2)cc1`
Response: 19.7
